Listed binders paired with reported SPOT signal as a fraction of Bim BH3's signal on the same receptor and array
Target: T1, Mcl-1, Q07820
T1 chain: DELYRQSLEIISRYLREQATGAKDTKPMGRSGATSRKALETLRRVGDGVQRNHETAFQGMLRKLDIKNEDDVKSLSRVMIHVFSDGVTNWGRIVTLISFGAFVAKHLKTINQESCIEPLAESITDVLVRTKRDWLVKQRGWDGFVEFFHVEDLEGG
Test: peptide SPOT array, c-Myc-tagged receptor at 1 uM or 100 nM, anti-c-Myc-Cy3
quantity: SPOT signal as a fraction of Bim BH3's signal on the same receptor and array

binder | measuredValue
ADVHGIWSRLFCDFLDEFEVLDTTGE [UBA6] | 0.05
SKEVAILCSFDLGLGDSCFNTQLLSI [MFSD11] | 0.04
ISDVQVFGYSLRFNADLLRSAVQQVN [DBC1] | 0.02
DISALTASNLLKRYAEKYSGVLDSPY [FIGNL2] | 0.03
DISLSNSGFKLVNFGCDYHQYRDKFS [PION] | 0.14
FVGYNSTGAELRHWLDMLANPRRPIA [SYT1] | 0.21
RHFVIRRGQVLREIAEEYGGVMVSFP | 0.04
CRREPGLAETLRDAAHLGLLECQFQF [WNT9B] | 0.02
AEVMRQRGINDRYLGKVLELVLRSPA [KIAA0664] | 0.53
RDHDEFIINLIRGLGGNLNMKSRLEF [DYNC2H1] | 0.03
RMIVDCVSSHLKKTGDGAKTFIIFLC [BBS10] | 0.17
LNLLMISVAFLRVIGDQLEKLCDSLL [SLC38A8] | 0.05
RHFVIRRGQVLREILEEYGGVMVSFP | 0.05
AGYELLIQKFLSLYGDQIDMHRKFVV [ISOC1] | 0.13
SGLPGLSSVDINNFLDSINESEGIPL [MKI67] | 0.04
TAGLRPGARLLRVCGQTLPSLRPEAA [SIPA1] | 0.91
CKDPKACTILLRGASKEILSEVERNL [CCT3] | 0.02
GVMTQEVGQLDQDMGDDVYQQYRSLT [HUWE1] | 0.01
KRALIQCAKDDAKASDEVTRLAKEVA [VCL] | 0.02
LFWTPLLVVLLAGLLDTEAQQTTLHP [SGCA] | 0.05
FSDCLMVVQFLRNFGKVLGFDVNIDV [BAZ2B] | 0.02
PALLVHWAKCLQKMLRGLNSSYDQQE [RGPD2] | 0.45
EQWAREIGAQDRRMADDLNAQYERRR [BBC3] | 0.07
GTAVAYRGAHDRGRGRAVYNTFRAAP [XXXX] | 1.35
RLRSEYVAQCLGRAAQGGCPRARCRR [GFRA4] | 0.8
DSLLWKLAGLDRESGDVVLSGCSTLS [STK11IP] | 0.04
EDLQQVIASVLRNLSWRADVNSKKTL [APC] | 0.07
LGLGELAGLTDANEADSLTYDIANNK [STRN] | 0.01
